Test: Drug concentrations obtained using EGCG at 50 mg per ml (microscopic check for particulates)
Assay type: physicochemical
Readout Name: Visual appearance

{"columns": ["Compound", "Visual appearance"],
 "data": [
  ["COc1cc(/C=C/C(=O)CC(=O)/C=C/c2ccc(O)c(OC)c2)ccc1O [curcumin]", "clear"],
  ["CC1=CC(=O)c2c(O)cccc2C1=O [plumbagin]", "clear"],
  ["CC1C(=O)OC2C(O)C34C5CC(C(C)(C)C)C36C(OC(=O)C6O)OC4(C(=O)O5)C12O (stereo not drawn) [ginkgolide B]", "clear solution"],
  ["C[C@@H]1[C@H](O)[C@@H](C)/C=C/C=C/CC/C=C/C=C/C=C/C=C/C(O[C@H]2O[C@H](C)[C@@H](O)[C@H](N)[C@@H]2O)CC2O[C@](O)(CC(O)C(O)CCC(O)CC(O)CC(O)CC(=O)O[C@H]1C)CC(O)C2C(=O)O (stereo partly drawn) [nystatin]", "clear solution"]
]}

Exercise: Identify measured Visual appearance associated with COc1ccc([C@@H]2CC(=O)c3c(O)cc(O)cc3O2)cc1O [hesperetin]
Solution: clear solution
